B1: library; numbered along this chain (parent)
chain: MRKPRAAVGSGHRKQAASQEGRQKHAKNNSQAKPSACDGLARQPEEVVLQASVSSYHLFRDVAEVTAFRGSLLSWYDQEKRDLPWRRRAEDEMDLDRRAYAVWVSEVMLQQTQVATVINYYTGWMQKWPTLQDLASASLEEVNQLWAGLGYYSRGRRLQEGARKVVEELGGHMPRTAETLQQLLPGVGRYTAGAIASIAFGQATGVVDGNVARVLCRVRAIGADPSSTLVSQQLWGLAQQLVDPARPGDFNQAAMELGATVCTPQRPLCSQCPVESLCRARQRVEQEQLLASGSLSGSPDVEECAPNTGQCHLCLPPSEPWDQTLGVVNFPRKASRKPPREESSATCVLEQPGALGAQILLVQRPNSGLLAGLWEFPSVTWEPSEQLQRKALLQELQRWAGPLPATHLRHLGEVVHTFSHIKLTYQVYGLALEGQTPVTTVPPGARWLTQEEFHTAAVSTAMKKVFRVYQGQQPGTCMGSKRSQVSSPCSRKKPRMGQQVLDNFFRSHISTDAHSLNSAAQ

Variants of: B1
Assay: 8OG:A repair function score (normalized; synonymous = 0, nonsense = -1) (normalized log-likelihood score); higher = more repair activity (WT-like);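 note: cells sorted at 72 h after reporter transfection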
Conditions: with 8OG:A DNA repair reporter (GFP) in HEK-293 MUTYH KO cells
Measured Metric: 8OG:A repair function score

Mutation Spec	Reported
A357C	0.0134
P316W	-0.331
V104A	-0.365
A203D	-0.191
T406H	0.516
L313E	-0.601
A101N	-0.0446
G39A	0.101
A63F	-0.142
L145F	0.0113
Q239R	-0.232
K127F	-0.207
Q521C	0.00296
F466Q	-0.488
K493V	-0.0351
I118F	-0.3
L169M	0.0203
A354T	-0.0601
F330V	-0.145
L73A	-0.307
V48A	0.00435
P365Q	-0.147

meta.source: the supplement of paper PMC11908140
